# Tested on: KRAS-mutant PDC complex spheroid viability
# protocol description: Anticancer human tumor 186277-243-T-J2-PDC patient-derived colon adenocarcinoma cell line growth inhibition [KRAS2]
# condition notes: second compound 1 µM; first compound 10 µM; stronger effect = lower value
value kind: viability, T/C (%)
Give bare numbers, in %.

| compound | test target | unit spec | reading |
| --- | --- | --- | --- |
| COC(=O)c1ccc2c(C(=Nc3ccc(N(C)C(=O)CN4CCN(C)CC4)cc3)c3ccccc3)c(O)[nH]c2c1 + CC1OCC2(CCN(c3cnc(Sc4ccnc(N)c4Cl)c(N)n3)CC2)C1N | KRAS-mutant PDC complex spheroid viability | % | 4.44 |
| COC(=O)c1ccc2c(C(=Nc3ccc(N(C)C(=O)CN4CCN(C)CC4)cc3)c3ccccc3)c(O)[nH]c2c1 + COc1cc2nc(C)nc(NC(C)c3cc(N)cc(C(F)(F)F)c3)c2cc1OC1CCOC1 | KRAS-mutant PDC complex spheroid viability | % | 8.29 |

# input for lookup
Give reported viability, T/C value for Cn1nccc1Nc1nccc(-c2cc3c(s2)C(C)(C)N(CCN2CCOCC2)C3=O)n1 + C=CC(=O)N1CCN(c2nc(=O)n(-c3c(C)ccnc3C(C)C)c3nc(-c4c(O)cccc4F)c(F)cc23)C(C)C1
10.1

* * *

# Tested on: KRAS-mutant PDC complex spheroid viability
# protocol description: Anticancer human tumor 186277-243-T-J2-PDC cell line growth inhibition [KRAS2]
# condition notes: curve of first compound; second compound 0.1 µM
Would you mind telling me the reported IC50 of each entry?
Answers are plain numbers, in nM.

Worked cases, IC50 given:
| compound | IC50 / nM |
| --- | --- |
| CC(C)n1nc(-c2ccc3oc(N)nc3c2)c2c(N)ncnc21 + COc1cc2nc(C)nc(NC(C)c3cc(N)cc(C(F)(F)F)c3)c2cc1OC1CCOC1 | 7.67 |
| Cn1nccc1Nc1nccc(-c2cc3c(s2)C(C)(C)N(CCN2CCOCC2)C3=O)n1 + C=CC(=O)N1CCN(c2nc(=O)n(-c3c(C)ccnc3C(C)C)c3nc(-c4c(O)cccc4F)c(F)cc23)C(C)C1 | 415 |
| Cn1nccc1Nc1nccc(-c2cc3c(s2)C(C)(C)N(CCN2CCOCC2)C3=O)n1 + CC1OCC2(CCN(c3cnc(Sc4ccnc(N)c4Cl)c(N)n3)CC2)C1N | 306 |
| COC(=O)c1ccc2c(C(=Nc3ccc(N(C)C(=O)CN4CCN(C)CC4)cc3)c3ccccc3)c(O)[nH]c2c1 + C=CC(=O)N1CCN(c2nc(=O)n(-c3c(C)ccnc3C(C)C)c3nc(-c4c(O)cccc4F)c(F)cc23)C(C)C1 | 2130 |
| Cn1nccc1Nc1nccc(-c2cc3c(s2)C(C)(C)N(CCN2CCOCC2)C3=O)n1 + CNCc1ccccc1-c1csc(C(C)Nc2nc(C)nc3cc(OC)c(OC)cc23)c1 | 293 |

For the 7 compounds below, give their IC50 values.
1. CC(C)n1nc(-c2ccc3oc(N)nc3c2)c2c(N)ncnc21 + C=CC(=O)N1CCN(c2nc(OCC3CCCN3C)nc3c2CCN(c2cccc4cccc(C)c24)C3)CC1CC#N
2. CCNC(=O)CC1N=C(c2ccc(Cl)cc2)c2cc(OC)ccc2-n2c(C)nnc21 (stereo not given) + CC1OCC2(CCN(c3cnc(Sc4ccnc(N)c4Cl)c(N)n3)CC2)C1N
3. O=C(c1cc(Cc2n[nH]c(=O)c3ccccc23)ccc1F)N1CCN(C(=O)C2CC2)CC1 + C=CC(=O)N1CCN(c2nc(OCC3CCCN3C)nc3c2CCN(c2cccc4cccc(C)c24)C3)CC1CC#N
4. COC(=O)c1ccc2c(C(=Nc3ccc(N(C)C(=O)CN4CCN(C)CC4)cc3)c3ccccc3)c(O)[nH]c2c1 + COc1cc2nc(C)nc(NC(C)c3cc(N)cc(C(F)(F)F)c3)c2cc1OC1CCOC1
5. CC1(C)CCC(CN2CCN(c3ccc(C(=O)NS(=O)(=O)c4ccc(NCC5CCOCC5)c([N+](=O)[O-])c4)c(Oc4cnc5[nH]ccc5c4)c3)CC2)=C(c2ccc(Cl)cc2)C1 + C=CC(=O)N1CCN(c2nc(=O)n(-c3c(C)ccnc3C(C)C)c3nc(-c4c(O)cccc4F)c(F)cc23)C(C)C1
6. Cn1nccc1Nc1nccc(-c2cc3c(s2)C(C)(C)N(CCN2CCOCC2)C3=O)n1 + C=CC(=O)N1CCN(c2nc(OCC3CCCN3C)nc3c2CCN(c2cccc4cccc(C)c24)C3)CC1CC#N
7. CC(=O)Nc1cccc(-n2c(=O)n(C3CC3)c(=O)c3c(Nc4ccc(I)cc4F)n(C)c(=O)c(C)c32)c1 + C=CC(=O)N1CCN(c2nc(=O)n(-c3c(C)ccnc3C(C)C)c3nc(-c4c(O)cccc4F)c(F)cc23)C(C)C1

10.1
5830
3530
2190
1890
456
0.625

* * *

Would you kindly list viability, T/C for each of these compounds?
# Tested on: KRAS-mutant PDC complex spheroid viability
# protocol description: Anticancer human tumor 186277-243-T-J2-PDC cell line growth inhibition [KRAS2];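 on viability, T/C: viability read after seven days of compound exposure; 100% = DMSO vehicle-treated spheroids so lower means less viable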
# condition notes: second compound 1 µM; first compound 1 µM; stronger effect = lower value
Give bare numbers, in %.

| compound | viability, T/C, % |
| --- | --- |
| Cn1nccc1Nc1nccc(-c2cc3c(s2)C(C)(C)N(CCN2CCOCC2)C3=O)n1 + C=CC(=O)N1CCN(c2nc(OCC3CCCN3C)nc3c2CCN(c2cccc4cccc(C)c24)C3)CC1CC#N | 8.02 |
| CCN1CCN(Cc2ccc(Nc3ncc(F)c(-c4cc(F)c5nc(C)n(C(C)C)c5c4)n3)nc2)CC1 + COc1cc2nc(C)nc(NC(C)c3cc(N)cc(C(F)(F)F)c3)c2cc1OC1CCOC1 | 50.9 |

Provide viability, T/C values for the following items, in order.
1. COC(=O)c1ccc2c(C(=Nc3ccc(N(C)C(=O)CN4CCN(C)CC4)cc3)c3ccccc3)c(O)[nH]c2c1 + CC1OCC2(CCN(c3cnc(Sc4ccnc(N)c4Cl)c(N)n3)CC2)C1N
2. CCN1CCN(Cc2ccc(Nc3ncc(F)c(-c4cc(F)c5nc(C)n(C(C)C)c5c4)n3)nc2)CC1 + CC1OCC2(CCN(c3cnc(Sc4ccnc(N)c4Cl)c(N)n3)CC2)C1N
3. COc1cc(Nc2ncc3c(n2)-c2ccc(Cl)cc2C(c2c(F)cccc2OC)=NC3)ccc1C(=O)O + CC1OCC2(CCN(c3cnc(Sc4ccnc(N)c4Cl)c(N)n3)CC2)C1N
4. CC1COCCN1c1cc(-c2ccnn2C)c2ccnc(-c3ccn[nH]3)c2n1 (stereo not given) + C=CC(=O)N1CCN(c2nc(=O)n(-c3c(C)ccnc3C(C)C)c3nc(-c4c(O)cccc4F)c(F)cc23)C(C)C1
5. COc1cc2nccc(Oc3ccc(NC(=O)C4(C(=O)Nc5ccc(F)cc5)CC4)cc3)c2cc1OC + C=CC(=O)N1CCN(c2nc(=O)n(-c3c(C)ccnc3C(C)C)c3nc(-c4c(O)cccc4F)c(F)cc23)C(C)C1
6. COC(=O)c1ccc2c(C(=Nc3ccc(N(C)C(=O)CN4CCN(C)CC4)cc3)c3ccccc3)c(O)[nH]c2c1 + COc1cc2nc(C)nc(NC(C)c3cc(N)cc(C(F)(F)F)c3)c2cc1OC1CCOC1

[74.8, 19.9, 22.1, 4.4, 61.8, 115]

Parameter requested: viability, T/C. Apply to each item below.
1. CCN1CCN(Cc2ccc(Nc3ncc(F)c(-c4cc(F)c5nc(C)n(C(C)C)c5c4)n3)nc2)CC1 + CNCc1ccccc1-c1csc(C(C)Nc2nc(C)nc3cc(OC)c(OC)cc23)c1
2. CC1COCCN1c1cc(-c2ccnn2C)c2ccnc(-c3ccn[nH]3)c2n1 (stereo not given) + CC1OCC2(CCN(c3cnc(Sc4ccnc(N)c4Cl)c(N)n3)CC2)C1N
3. CC1OCC2(CCN(c3cnc(Sc4ccnc(N)c4Cl)c(N)n3)CC2)C1N (stereo not given) + C=CC(=O)N1CCN(c2nc(OCC3CCCN3C)nc3c2CCN(c2cccc4cccc(C)c24)C3)CC1CC#N
4. CC1(C)CCC(CN2CCN(c3ccc(C(=O)NS(=O)(=O)c4ccc(NCC5CCOCC5)c([N+](=O)[O-])c4)c(Oc4cnc5[nH]ccc5c4)c3)CC2)=C(c2ccc(Cl)cc2)C1 + CNCc1ccccc1-c1csc(C(C)Nc2nc(C)nc3cc(OC)c(OC)cc23)c1
5. CCNC(=O)CC1N=C(c2ccc(Cl)cc2)c2cc(OC)ccc2-n2c(C)nnc21 (stereo not given) + C=CC(=O)N1CCN(c2nc(=O)n(-c3c(C)ccnc3C(C)C)c3nc(-c4c(O)cccc4F)c(F)cc23)C(C)C1

1: 23.6; 2: 2.23; 3: 107; 4: 116; 5: 138

* * *

Could you please report measured pIC50 for the items listed next?
# System: KRAS-mutant PDC complex spheroid viability
# protocol description: Anticancer human tumor 186277-243-T-J2-PDC cell line growth inhibition [KRAS2]
# condition notes: curve of first compound; second compound 10 µM
pIC50: −log10 of the molar value.

| molecule | pIC50 |
| --- | --- |
| COc1cc(Nc2ncc3c(n2)-c2ccc(Cl)cc2C(c2c(F)cccc2OC)=NC3)ccc1C(=O)O + CC1OCC2(CCN(c3cnc(Sc4ccnc(N)c4Cl)c(N)n3)CC2)C1N | > 7.50 |
| CC(=O)OC12COC1CC(O)C1(C)C(=O)C(O)C3=C(C)C(OC(=O)C(O)C(NC(=O)OC(C)(C)C)c4ccccc4)CC(O)(C(OC(=O)c4ccccc4)C21)C3(C)C (stereo not drawn) + CC1OCC2(CCN(c3cnc(Sc4ccnc(N)c4Cl)c(N)n3)CC2)C1N | > 8.00 |
| CC(C)n1nc(-c2ccc3oc(N)nc3c2)c2c(N)ncnc21 + C=CC(=O)N1CCN(c2nc(=O)n(-c3c(C)ccnc3C(C)C)c3nc(-c4c(O)cccc4F)c(F)cc23)C(C)C1 | > 9.50 |
| CC1COCCN1c1cc(-c2ccnn2C)c2ccnc(-c3ccn[nH]3)c2n1 (stereo not drawn) + CC1OCC2(CCN(c3cnc(Sc4ccnc(N)c4Cl)c(N)n3)CC2)C1N | 7.82 |

Hey, can you go through the list below and give me pIC50 for every item?
1. CCN1CCN(Cc2ccc(Nc3ncc(F)c(-c4cc(F)c5nc(C)n(C(C)C)c5c4)n3)nc2)CC1 + C=CC(=O)N1CCN(c2nc(=O)n(-c3c(C)ccnc3C(C)C)c3nc(-c4c(O)cccc4F)c(F)cc23)C(C)C1
2. Cn1nccc1Nc1nccc(-c2cc3c(s2)C(C)(C)N(CCN2CCOCC2)C3=O)n1 + CNCc1ccccc1-c1csc(C(C)Nc2nc(C)nc3cc(OC)c(OC)cc23)c1
3. CC1COCCN1c1cc(-c2ccnn2C)c2ccnc(-c3ccn[nH]3)c2n1 (stereo not drawn) + C=CC(=O)N1CCN(c2nc(=O)n(-c3c(C)ccnc3C(C)C)c3nc(-c4c(O)cccc4F)c(F)cc23)C(C)C1
4. CC1OCC2(CCN(c3cnc(Sc4ccnc(N)c4Cl)c(N)n3)CC2)C1N (stereo not drawn) + COc1cc2nc(C)nc(NC(C)c3cc(N)cc(C(F)(F)F)c3)c2cc1OC1CCOC1
5. CC(=O)OC12COC1CC(O)C1(C)C(=O)C(O)C3=C(C)C(OC(=O)C(O)C(NC(=O)OC(C)(C)C)c4ccccc4)CC(O)(C(OC(=O)c4ccccc4)C21)C3(C)C (stereo not drawn) + COc1cc2nc(C)nc(NC(C)c3cc(N)cc(C(F)(F)F)c3)c2cc1OC1CCOC1
6. COC(=O)c1ccc2c(C(=Nc3ccc(N(C)C(=O)CN4CCN(C)CC4)cc3)c3ccccc3)c(O)[nH]c2c1 + C=CC(=O)N1CCN(c2nc(=O)n(-c3c(C)ccnc3C(C)C)c3nc(-c4c(O)cccc4F)c(F)cc23)C(C)C1

[6.24, "> 7.50", "> 8.00", 5.82, "> 8.00", 6.69]
